Attribution: ChEMBL document CHEMBL1671635

test: Plasma protein binding in human at < 100 ug/ml; type: ADME, cell-free; conditions: read-out: PPB (converted)
assay readout: fraction unbound
Output spec: single numeric token, no unit.

Query: Return fraction unbound (reported value) for this compound: CO/N=C(\C(=O)N[C@@H]1C(=O)N2C(C(=O)O)=C(CSc3nc(=O)c(=O)[nH]n3C)CS[C@H]12)c1csc(N)n1
Result: 0.1

---

molecular target: Albumin (Bos taurus, UniProt P02769); experiment: Binding affinity to bovine serum albumin in THB medium containing 40 g/L BSA; type: ADME; conditions: cattle, bovine serum albumin (40 g/L) in THB medium; read-out: PB (converted)
Sequence (P02769 whole entry): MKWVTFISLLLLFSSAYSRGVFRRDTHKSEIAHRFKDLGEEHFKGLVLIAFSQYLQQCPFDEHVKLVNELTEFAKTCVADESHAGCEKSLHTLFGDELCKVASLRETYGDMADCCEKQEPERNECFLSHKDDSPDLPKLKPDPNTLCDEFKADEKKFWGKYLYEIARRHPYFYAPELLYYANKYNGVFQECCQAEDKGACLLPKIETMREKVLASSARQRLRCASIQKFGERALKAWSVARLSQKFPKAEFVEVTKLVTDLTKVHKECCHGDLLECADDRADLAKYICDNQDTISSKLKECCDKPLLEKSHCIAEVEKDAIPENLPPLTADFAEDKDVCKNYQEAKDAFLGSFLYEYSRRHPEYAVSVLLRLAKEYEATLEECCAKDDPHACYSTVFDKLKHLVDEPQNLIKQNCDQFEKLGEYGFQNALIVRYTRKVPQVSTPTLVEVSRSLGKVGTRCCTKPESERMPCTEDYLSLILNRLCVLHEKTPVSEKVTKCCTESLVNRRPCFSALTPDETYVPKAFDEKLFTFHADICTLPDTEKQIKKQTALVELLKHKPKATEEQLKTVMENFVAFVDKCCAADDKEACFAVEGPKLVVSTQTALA
assay readout: fraction unbound
Output spec: single numeric token, no unit.

{"compound structure": "C[C@@H](O)[C@H]1C(=O)N2C(C(=O)O)=C(S[C@@H]3CN[C@H](C(=O)Nc4cccc(C(=O)O)c4)C3)[C@H](C)[C@H]12", "fraction unbound": 0.876}

Now for a further compound.
Query: Return fraction unbound (reported value) for this compound: CO/N=C(\C(=O)N[C@@H]1C(=O)N2C(C(=O)O)=C(CSc3nc(=O)c(=O)[nH]n3C)CS[C@H]12)c1csc(N)n1
Result: 0.798
